Reported IC50 values for the following molecules.
Target: Receptor tyrosine-protein kinase erbB-2 (Homo sapiens, UniProt P04626)
Sequence (P04626 whole entry): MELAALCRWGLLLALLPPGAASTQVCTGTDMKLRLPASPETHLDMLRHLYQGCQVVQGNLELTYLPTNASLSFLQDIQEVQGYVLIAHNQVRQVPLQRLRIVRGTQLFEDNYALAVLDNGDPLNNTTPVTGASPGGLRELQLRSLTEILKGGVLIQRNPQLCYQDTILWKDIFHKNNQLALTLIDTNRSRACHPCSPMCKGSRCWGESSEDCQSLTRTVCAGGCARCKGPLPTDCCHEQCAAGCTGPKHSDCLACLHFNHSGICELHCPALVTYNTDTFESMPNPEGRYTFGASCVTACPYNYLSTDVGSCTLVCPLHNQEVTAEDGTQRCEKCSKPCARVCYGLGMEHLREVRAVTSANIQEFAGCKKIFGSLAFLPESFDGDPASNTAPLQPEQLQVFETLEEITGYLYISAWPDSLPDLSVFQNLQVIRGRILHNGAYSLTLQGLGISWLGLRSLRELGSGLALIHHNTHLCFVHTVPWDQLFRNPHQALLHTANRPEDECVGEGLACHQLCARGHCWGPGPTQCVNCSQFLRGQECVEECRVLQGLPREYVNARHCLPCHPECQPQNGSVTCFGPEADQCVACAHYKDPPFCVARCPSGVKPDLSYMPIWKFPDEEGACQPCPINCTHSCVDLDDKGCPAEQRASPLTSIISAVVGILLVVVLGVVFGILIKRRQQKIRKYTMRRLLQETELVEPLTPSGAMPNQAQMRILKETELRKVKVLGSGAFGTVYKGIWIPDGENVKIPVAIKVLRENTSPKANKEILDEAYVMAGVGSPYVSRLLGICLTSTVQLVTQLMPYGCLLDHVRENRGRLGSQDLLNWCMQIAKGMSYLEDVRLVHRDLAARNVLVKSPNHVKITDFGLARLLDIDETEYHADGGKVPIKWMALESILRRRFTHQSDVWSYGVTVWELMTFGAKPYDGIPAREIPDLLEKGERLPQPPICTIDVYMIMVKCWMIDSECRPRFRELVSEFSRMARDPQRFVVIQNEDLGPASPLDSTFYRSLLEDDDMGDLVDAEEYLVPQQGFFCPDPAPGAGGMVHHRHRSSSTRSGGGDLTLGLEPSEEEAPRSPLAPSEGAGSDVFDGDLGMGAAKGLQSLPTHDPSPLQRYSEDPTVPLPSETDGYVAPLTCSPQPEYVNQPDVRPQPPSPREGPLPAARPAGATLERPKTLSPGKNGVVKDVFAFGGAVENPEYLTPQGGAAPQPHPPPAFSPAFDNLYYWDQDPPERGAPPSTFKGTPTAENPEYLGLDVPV
Test: Inhibition of human wild type HER2 using PolyEY as substrate pre-incubated for 30 mins followed by substrate addition and measured for 60 mins by spectrophotometric analysis

SMILES DATA	IC50
C=CC(=O)N1CCN(c2ncc3ncnc(Nc4ccc(Oc5ccn6ncnc6c5)c(C)c4)c3n2)CC1	5.8 nM
C=CC(=O)N1CCN(c2ncc3ncnc(Nc4ccc(Oc5ccccc5)c(C)c4)c3n2)CC1	12 nM
C=CC(=O)N1CCN(c2ncc3ncnc(Nc4ccc(Oc5ccc6c(c5)ncn6C)c(C)c4)c3n2)CC1	16 nM

###

Experiment: Clearance in rat
Type: ADME
Details: in vivo
MEASURED METRIC: clearance

SMILES DATA	MEASURED METRIC	VALUE MEASURED
O=C(Nc1ccc2ncnc(Nc3ccc(OCc4cccc(F)c4)c(Cl)c3)c2c1)c1ccc(CNCCO)cc1	clearance	≤ 9.6 mL/min/kg

###

IC50 values recorded for Epidermal growth factor receptor (Homo sapiens, UniProt P00533)

SMILES DATA	IC50
Cc1cc(Nc2ncnc3ccc(NC4=NC(C)(C)CO4)cc23)ccc1Oc1ccn2ncnc2c1	> 500 nM
C=CC(=O)N1CCC[C@@H](n2nc(C(=O)Nc3ccc(CC(=O)N(C)C)c(C)c3C)c3c(N)ncnc32)C1	65 nM
COc1ccc2c(Nc3ccc(Oc4cccc5ccc(C)nc45)c(C)c3)ncnc2c1	166 nM
CCOc1cc2ncnc(Nc3ccc(Oc4ccn5ncnc5c4)c(C)c3)c2cc1NC(=O)/C=C/[C@H]1CCCN1C	1.36 nM
C=CC(=O)N1CCC[C@@H](n2nc(-c3ccc(OCc4cccc(C)n4)cc3)c3c(N)ncnc32)C1	0.12 nM
COCCOc1ccc2ncnc(Nc3ccc(Oc4cccc5ccc(C)nc45)c(C)c3)c2c1	143 nM
Cc1ccc2cccc(Oc3ccc(Nc4ncnc5ccc(NC6CCCC6)cc45)cc3C)c2n1	155 nM
CCOc1cc2ncnc(Nc3ccc(Oc4ccn5ncnc5c4)c(C)c3)c2cc1NC(=O)/C(F)=C/[C@H]1CCCN1C	8.13 nM

###

Molecular target: Receptor tyrosine-protein kinase erbB-2 (Homo sapiens, UniProt P04626, D769Y)
Sequence (P04626 23-1255 D769Y limits assumed): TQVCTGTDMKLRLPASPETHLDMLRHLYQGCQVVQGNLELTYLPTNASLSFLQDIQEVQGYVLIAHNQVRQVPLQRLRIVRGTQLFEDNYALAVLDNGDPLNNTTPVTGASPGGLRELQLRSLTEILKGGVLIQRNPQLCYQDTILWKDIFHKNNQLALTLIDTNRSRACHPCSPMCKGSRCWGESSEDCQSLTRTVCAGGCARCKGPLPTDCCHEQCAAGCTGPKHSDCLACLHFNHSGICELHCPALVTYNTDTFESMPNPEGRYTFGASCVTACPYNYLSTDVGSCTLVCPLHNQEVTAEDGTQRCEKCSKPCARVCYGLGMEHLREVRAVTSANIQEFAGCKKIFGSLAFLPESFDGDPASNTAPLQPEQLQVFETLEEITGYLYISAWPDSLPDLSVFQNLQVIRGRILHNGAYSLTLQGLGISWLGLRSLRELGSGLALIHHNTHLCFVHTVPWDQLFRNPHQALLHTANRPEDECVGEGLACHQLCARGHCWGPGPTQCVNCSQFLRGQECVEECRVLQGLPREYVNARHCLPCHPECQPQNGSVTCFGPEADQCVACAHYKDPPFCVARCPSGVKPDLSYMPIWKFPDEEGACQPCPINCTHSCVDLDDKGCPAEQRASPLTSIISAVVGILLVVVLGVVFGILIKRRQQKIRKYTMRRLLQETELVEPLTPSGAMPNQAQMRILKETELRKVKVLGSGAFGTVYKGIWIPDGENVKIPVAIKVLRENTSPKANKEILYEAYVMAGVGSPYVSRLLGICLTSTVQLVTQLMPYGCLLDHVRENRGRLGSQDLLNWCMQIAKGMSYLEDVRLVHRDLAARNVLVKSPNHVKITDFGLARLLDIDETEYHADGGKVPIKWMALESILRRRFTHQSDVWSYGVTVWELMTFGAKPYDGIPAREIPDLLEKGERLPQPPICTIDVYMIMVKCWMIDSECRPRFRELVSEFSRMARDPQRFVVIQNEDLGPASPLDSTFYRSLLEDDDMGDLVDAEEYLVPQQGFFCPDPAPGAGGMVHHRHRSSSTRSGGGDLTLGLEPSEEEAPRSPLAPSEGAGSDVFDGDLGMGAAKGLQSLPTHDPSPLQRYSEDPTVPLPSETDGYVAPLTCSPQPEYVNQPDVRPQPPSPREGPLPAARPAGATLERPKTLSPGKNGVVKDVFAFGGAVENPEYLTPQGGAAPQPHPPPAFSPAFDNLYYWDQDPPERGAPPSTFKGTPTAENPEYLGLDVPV
Assay: Inhibition of HER2 D769Y mutant (unknown origin)

SMILES DATA	IC50
CCOc1cc2ncnc(Nc3ccc(Oc4ccn5ncnc5c4)c(C)c3)c2cc1NC(=O)/C(F)=C/[C@H]1CCCN1C	< 1 nM

###

Tested on: NCI-N87
Test: Antiproliferative activity against human NCI-N87 cells assessed as cell growth measured for 48 hrs by MTT assay
Format: functional, cell-based
Settings: NCI-N87, 48 h

SMILES DATA	UNIT TAG	IC50
Cc1cc(Nc2ncnc3ccc(NC(=O)/C=C/[C@H]4CCCN4C)cc23)ccc1Oc1ccn2ncnc2c1	nM	2.65

###

Reported IC50 values for the following compounds.
Target: Epidermal growth factor receptor (Homo sapiens)
Sequence (P00533 whole entry): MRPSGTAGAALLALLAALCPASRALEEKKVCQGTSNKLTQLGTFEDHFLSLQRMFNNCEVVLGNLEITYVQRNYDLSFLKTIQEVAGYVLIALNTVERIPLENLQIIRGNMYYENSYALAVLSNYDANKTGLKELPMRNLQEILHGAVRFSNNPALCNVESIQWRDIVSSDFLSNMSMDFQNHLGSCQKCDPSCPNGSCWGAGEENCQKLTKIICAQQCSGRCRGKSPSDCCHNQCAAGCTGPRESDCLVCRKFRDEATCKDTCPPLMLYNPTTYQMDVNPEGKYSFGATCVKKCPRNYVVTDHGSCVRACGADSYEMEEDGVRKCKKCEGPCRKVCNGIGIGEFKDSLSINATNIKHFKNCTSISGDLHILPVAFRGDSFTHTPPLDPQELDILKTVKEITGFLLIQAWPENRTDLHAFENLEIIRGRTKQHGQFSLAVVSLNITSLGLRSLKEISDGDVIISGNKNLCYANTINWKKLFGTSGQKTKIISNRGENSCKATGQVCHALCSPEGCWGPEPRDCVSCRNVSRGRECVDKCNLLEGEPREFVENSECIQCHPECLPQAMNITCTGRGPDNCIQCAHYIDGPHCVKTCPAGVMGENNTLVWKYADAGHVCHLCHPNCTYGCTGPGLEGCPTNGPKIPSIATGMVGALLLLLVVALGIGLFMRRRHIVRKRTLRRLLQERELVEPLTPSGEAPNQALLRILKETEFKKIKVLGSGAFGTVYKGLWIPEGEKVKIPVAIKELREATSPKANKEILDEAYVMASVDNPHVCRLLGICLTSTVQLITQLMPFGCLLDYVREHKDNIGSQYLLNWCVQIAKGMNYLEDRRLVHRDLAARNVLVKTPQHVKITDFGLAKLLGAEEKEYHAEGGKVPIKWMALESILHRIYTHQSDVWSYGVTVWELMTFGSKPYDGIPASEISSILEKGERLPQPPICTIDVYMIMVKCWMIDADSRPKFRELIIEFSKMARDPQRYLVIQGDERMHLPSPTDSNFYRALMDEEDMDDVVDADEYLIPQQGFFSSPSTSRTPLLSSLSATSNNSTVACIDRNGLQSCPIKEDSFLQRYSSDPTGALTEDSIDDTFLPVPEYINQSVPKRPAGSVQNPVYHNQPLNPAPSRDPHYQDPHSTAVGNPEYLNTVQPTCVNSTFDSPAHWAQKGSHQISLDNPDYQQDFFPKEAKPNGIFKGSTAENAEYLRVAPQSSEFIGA
Assay: Inhibition of human wild type EGFR using PolyEY as substrate pre-incubated for 30 mins followed by substrate addition and measured for 60 mins by spectrophotometric analysis
MEASURED METRIC: IC50 (µM)

SMILES DATA	MEASURED METRIC	CENSORING QUALIFIER	VALUE MEASURED
C=CC(=O)N1CCN(c2ncc3ncnc(Nc4ccc(Oc5ccc6c(c5)ncn6C)c(C)c4)c3n2)CC1	IC50	>	0.005
C=CC(=O)N1CCN(c2ncc3ncnc(Nc4ccc(Oc5ccccc5)c(C)c4)c3n2)CC1	IC50	=	0.2
C=CC(=O)N1CCN(c2ncc3ncnc(Nc4ccc(Oc5ccn6ncnc6c5)c(C)c4)c3n2)CC1	IC50	=	2.2
